# Tested on: CEM cells HIV-1 protection, formazan growth assay
# PROTOCOL_DESCRIPTION: NCI AIDS Antiviral Assay
# Protocol: The ability of compounds to protect human CEM cells from HIV-1 infection is measured as a screen for new compounds capable of inhibiting the HIV virus. Five concentrations of drug were tested on uninfected and infected cells and cell growth was measured using a soluble formazan assay. […] Compounds that provided at least 50% protection were retested. Compounds that provided at least 50% protection on retest were listed as moderately active. […]
pEC50: −log10 of the molar value.
ENDPOINT_NAME: pEC50

[ask] Given "O=C(NCCCCNCCCNC(=O)c1ccc([N+](=O)[O-])cc1)c1ccc([N+](=O)[O-])cc1" , respond with its pEC50.
[reply] < 3.70

[ask] Give a short answer stating reported pEC50 for "CC(C)CCC(=O)c1ccoc1" .
[reply] < 2.82

[ask] Please give the documented pEC50 of CC1CC[C@]2(C(=O)O)CCC3(C)C(=C2[C@H]1C)C=CC1[C@@]2(C)CC[C@H](O)C(C)(C)C2CC[C@]13C (stereo not given in full)
[reply] < 4.00

[ask] Give pEC50 for "CCCC(=O)Oc1ccc2c(C)cc(=O)oc2c1OC(=O)CCC"
[reply] < 3.70

[ask] Input "N#CC(C#N)=CC=C1c2ccccc2Sc2ccccc21" , output reported pEC50.
[reply] < 4.74

[ask] Read off the recorded pEC50 for CC(C)(C)[Si](C)(C)OCC1OC(n2ccc(=O)[nH]c2=O)C(O[Si](C)(C)C(C)(C)C)C1C/C(N)=N/O (stereo not given)
[reply] < 3.70

[ask] For the compound "C=C(C)C(C)(C)n1[nH]c(=O)n(-c2ccccc2)c1=O" , give its reported pEC50.
[reply] < 3.70

[ask] State its pEC50 for this compound: CC1=C(C(N)=O)C(c2ccncc2)C(C#N)=C2SCC(=O)N12 (stereo not given)
[reply] < 3.70

[ask] Please indicate pEC50 recorded for COC(=O)C1(C#N)C(C)(C)N=C(c2ccccc2)C12CCCCC2 (stereo not given)
[reply] < 3.70

[ask] State, in one line, measured pEC50 of "CC(C)NC(=O)N(Nc1ccccc1)C(C)(C)C"
[reply] < 3.70

----------
# System: CEM cells HIV-1 protection, formazan growth assay
# PROTOCOL_DESCRIPTION: NCI AIDS Antiviral Assay
pEC50: −log10 of the molar value.
So I've got a bunch of molecules here, and I need their pEC50 values.

[ask] Quick one: give measured pEC50 for "BrCC[N+]12CC[N+](CCBr)(CC1)C2"
[reply] < 3.28

[ask] Identify pEC50 associated with the molecule "Cc1cc(S(=O)(=O)n2ccnc2Oc2ccccc2)c(SSc2cc(Cl)c(C)cc2S(=O)(=O)n2ccnc2Oc2ccccc2)cc1Cl"
[reply] 3.89

[ask] Give a short answer stating reported pEC50 for "COC(=O)[C@H]1ON2O[C@@H](O[C@H]3CCCC[C@@H]3C(C)(C)c3ccccc3)C[C@@H]3CC[C@H]1[C@@]32C" .
[reply] < 3.70

[ask] Please give the documented pEC50 of CSC1(CC(=O)N2CCCCC2)C(=O)Nc2ccccc21 (stereo not drawn)
[reply] < 3.70

[ask] Specify reported pEC50 for the molecule shown: "CCOc1cc2c(cc1O)C(=O)C[C@@H]1[C@@H]2CC[C@]2(C)[C@@H](O)CC[C@@H]12"
[reply] < 5.70

[ask] Answer with reported pEC50 of CCOc1ccc(NC(=O)CC2SC(=Nc3ccc(C)cc3)NC2=O)cc1 (stereo not drawn)
[reply] < 4.17

[ask] Please give the documented pEC50 of "O=S(=O)(NC1CCCCC1)c1ccc2c(c1)OCCOCCOCCOCCO2"
[reply] < 3.70

[ask] Specify measured pEC50 for O=C1CCCCC1C(O)(C(F)(F)F)C(F)(F)Cl (stereo not drawn) .
[reply] < 3.70

[ask] Assign pEC50 to the following record: "CNC(=S)NNC1=NCCCN1"
[reply] < 3.70

[ask] Using known records, supply pEC50 for "CC(=O)N=C1N(/C=C2\C(=O)Oc3ccccc3C2=O)C(=O)/C(=C/c2ccc(Cl)cc2Cl)N1C"
[reply] < 3.70

[ask] Give pEC50 for the following molecule: "CC(C)(C)C#CI1OC(=O)c2ccccc21"
[reply] < 3.70

[ask] Identify the reported pEC50 for the following entry. CCCCCCCCCCCCCC(=O)OCC1OC(OC)C(NC(=O)N(CCCl)N=O)C(O)C1O (stereo not drawn)
[reply] < 4.73

[ask] # return recorded pEC50 for input "Cc1ccc(NC(=O)CCc2nnc3s/c(=C\C=C\c4ccccc4)c(=O)n23)cc1"
[reply] < 4.21

[ask] Using the record for "COc1cc2ccc(=O)oc2cc1O" , state its measured pEC50.
[reply] < 3.47

[ask] Please give the documented pEC50 of CCN(CC)CCCN1CCc2c([nH]c3ccccc23)C1c1cccnc1 (stereo not drawn)
[reply] < 3.73

[ask] Tell me its pEC50 given "O=C1NC(=O)C(c2ccccc2)(c2ccccc2)N1" as the entry.
[reply] < 3.43

[ask] Give the reported pEC50 for this molecule. "O=C1CCC(=O)N2c3ccccc3-c3ccccc3N12"
[reply] < 3.72

[ask] Tell me its pEC50 given COc1ccc(NC(=O)C(=O)C2CNC(=O)NC2=O)c(OC)c1 (stereo not drawn) as the entry.
[reply] < 3.68

[ask] Identify pEC50 associated with the molecule "CC(=O)Nc1ccc([As](=O)(O)O)cc1NC(C)=O"
[reply] < 3.70

[ask] // fetch pEC50 given entry "CC(=O)/C=C/c1ccco1"
[reply] < 4.58

[ask] Please report the measured pEC50 for "CC(C)(C)C(=O)C(C(=O)c1ccccc1)C(=O)C(C)(C)C"
[reply] < 3.70

[ask] Input "CCc1ccccc1C1(Br)C(=O)c2ccccc2C1=O" , output reported pEC50.
[reply] < 3.70

[ask] Please give measured pEC50 of the following entry: "c1ccc2c(c1)Cc1cn3c(nc1-2)nc1ccccc13"
[reply] < 3.70

Entry source: PubChem BioAssay AID179
